Reference source: PubChem BioAssay AID1159580

methodNotes: chemical genetic growth profiling, strain panel (AID 1159580);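 note: tested at 20 µM; growth read once vehicle control cultures reached saturation at 30 °C; lower values mean less growth of the strain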
conditionDetails: S. cerevisiae deletion strains, growth OD, locus YLR371W, strain rom2
In all, about 5,500 compounds went through this assay and about 2,000 (36%) were called active. Not shown: some 18% with an inconclusive outcome. Cut-off read from the data, not from the text of the source: active = normalized growth mostly below about 0.91 (no sharp cut-off); inconclusive = no clear call, values can overlap the other calls; inactive = mostly above about 0.92. The list shows a part of the results.
Lab note: assign the record to one of active, inactive

compound: CNNC
groupLabel: inactive

### Prompt Hello, I am checking results. What call was entered for "CC(=O)Oc1c(Cl)c(C)c2c(c1Cl)OC(=O)c1c(C)c(Cl)c(OC(C)=O)c(Cl)c1O2" ?
### Response inactive

### Prompt Hi, sorry to bother you, what did the test record for CN(C)C1C(=O)C(C(N)=O)=C(O)C2(O)C(=O)C3=C(O)c4c(O)ccc(Cl)c4C(C)(O)C3CC12 (stereo not given) ?
### Response inactive

### Prompt Hello, I am checking results. What call was entered for "O=C(O)c1cccnc1" ?
### Response inactive
